measured target: Aminopeptidase N (Plasmodium falciparum FcB1/Columbia)
Sequence (O96935 whole entry): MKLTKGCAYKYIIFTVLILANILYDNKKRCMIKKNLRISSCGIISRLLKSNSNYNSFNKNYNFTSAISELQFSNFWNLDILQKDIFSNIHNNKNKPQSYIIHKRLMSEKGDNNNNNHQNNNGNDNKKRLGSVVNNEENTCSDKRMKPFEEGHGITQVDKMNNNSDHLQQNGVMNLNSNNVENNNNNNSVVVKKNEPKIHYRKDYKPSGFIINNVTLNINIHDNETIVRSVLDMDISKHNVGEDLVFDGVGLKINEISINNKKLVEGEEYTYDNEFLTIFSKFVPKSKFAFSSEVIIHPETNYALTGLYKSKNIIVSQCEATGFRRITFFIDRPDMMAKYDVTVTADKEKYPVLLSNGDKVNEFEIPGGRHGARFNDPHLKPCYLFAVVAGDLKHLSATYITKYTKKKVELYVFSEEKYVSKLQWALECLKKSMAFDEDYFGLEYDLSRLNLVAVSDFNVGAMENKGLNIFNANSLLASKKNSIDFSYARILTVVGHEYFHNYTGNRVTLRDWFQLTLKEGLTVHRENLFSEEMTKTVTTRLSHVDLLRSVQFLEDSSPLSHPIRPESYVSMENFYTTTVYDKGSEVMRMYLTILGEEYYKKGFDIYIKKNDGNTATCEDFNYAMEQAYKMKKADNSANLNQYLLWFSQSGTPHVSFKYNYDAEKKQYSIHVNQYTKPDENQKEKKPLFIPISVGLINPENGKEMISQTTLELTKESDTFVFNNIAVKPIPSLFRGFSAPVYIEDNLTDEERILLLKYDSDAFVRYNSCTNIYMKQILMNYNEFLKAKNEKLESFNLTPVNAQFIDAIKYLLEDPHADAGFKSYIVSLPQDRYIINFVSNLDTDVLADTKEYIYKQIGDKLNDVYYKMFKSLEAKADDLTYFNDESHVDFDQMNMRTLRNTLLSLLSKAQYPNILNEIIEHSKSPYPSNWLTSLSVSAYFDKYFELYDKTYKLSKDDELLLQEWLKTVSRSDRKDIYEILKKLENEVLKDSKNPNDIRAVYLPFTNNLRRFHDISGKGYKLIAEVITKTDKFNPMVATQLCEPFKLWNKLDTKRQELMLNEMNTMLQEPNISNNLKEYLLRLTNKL
procedure summary: malaria alanyl aminopeptidase activity blockers – biochemical, fluorogenic H-Leu-NHMec substrate, 1536-well (AID 1445)
Set-up: species or system Plasmodium falciparum 3D7, 3D7
Active and inactive are the calls of the source. The rule behind the calls is not given here.
IC50 reference

Field: example entries. Status: answers known.
compound=Cc1ccc(S(=O)(=O)Nc2ccc(O)c(Sc3nc[nH]n3)c2)cc1 recorded_metric=IC50 result="83.8 µM (active)"
compound=COc1cc(/C=C/C(=O)O)cc(S(=O)(=O)Nc2cc(Cl)c(Cl)cc2Cl)c1OC recorded_metric=IC50 result="94.2 µM (active)"

Inquiry: // query IC50 value for entry O=C(CS(=O)(=O)Cc1ccccc1)N1CCN(c2cccc(C(F)(F)F)c2)CC1
Reply text: 105 µM (active)

Inquiry: // query IC50 value for entry NS(=O)(=O)c1ccc(N2N=C(c3ccccc3)CC2c2cccc(F)c2)cc1 (stereo unspecified)
Reply text: 47.6 µM (active)

Inquiry: // query IC50 value for entry O=C(CSc1nc2ccsc2c(=O)n1NC(=O)c1ccccc1)NCc1ccco1
Reply text: 72.1 µM (active)

Inquiry: // query IC50 value for entry Cc1ccc(S(=O)(=O)c2nc(NCCN(C)C)sc2Cl)cc1
Reply text: 12.7 µM (active)
